- ASSAY_NAME: ATG_TAL_CIS: Attagene CIS-FACTORIAL HepG2 Assay for human TAL Basal Promoter (AID 2282966);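 note: background control endpoint measuring basal TAL promoter reporter mRNA not a specific factor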
- CONDITION_SUMMARY: HepG2 Attagene cis-factorial TAL promoter reporter; actives raise or lower the signal
Activity calls are given as the source filed them. Rule for the calls: active = hit-call score of the fitted dose curve at least 0.9, where 1 is the maximum; inactive = score below 0.9.
Outcomes you can answer with include only these: active, inactive

Field: outcome | Entry: CC(=O)OCC(C)OC(C)=O (stereo not given)
inactive

Outcome? `O=P(O)(O)Oc1ccccc1`
inactive

Tell me the assay call for `Nc1ccc(Oc2ccc(N)c(N)c2)cc1` please.
inactive

Hi, sorry to bother you, what did the test record for `CC(=O)CC(N)=O` ?
inactive

GET /call?item= `CCc1ccc2c(c1)C(=O)c1ccccc1C2=O` returns the recorded outcome of this test.
inactive

Dear all, I need the recorded test outcome for `c1c[nH]cn1` , thank you.
inactive

Recorded test call requested for CCC(C)(C)C1CCCCC1OC(C)=O (stereo not given)
inactive

# outcome recorded in this test, key = `C=C(C)C(=O)OCC(C)C`
inactive

Please share the test call associated with `CC(=O)Oc1ccc(C)cc1` .
inactive

Could you check what this test reported for `CCC(CC)C(=O)O` ?
inactive

// param item: `C=CCOc1c(Br)cc(Br)cc1Br` ; yields the recorded call
inactive

How was `C1CN(SSN2CCOCC2)CCO1` classified in this test?
inactive

Which result was noted for this molecule in the test: `Cc1cc(O)c(Cl)c(C)c1Cl`
inactive

Any idea what this test logged for `O=C1c2ccccc2C(=O)C1c1nc2ccccc2c(Br)c1O` ?
inactive

// return assay outcome for `O=C1CCCCCCCCCCCCCCCO1`
inactive

Call for entry `CCCCCCCCCCOC(C)=O` :
inactive

Hi team, can someone confirm the assay call for C=C1C2CCC(C2)C1(C)C (stereo not given) ?
inactive

Could you please tell me the result logged for `OCCc1ccncc1` in this assay?
inactive

Identify the outcome logged in this assay for the molecule shown: `Nc1ccc(N)c(Cl)c1`
inactive

# outcome recorded in this test, key = `CCCCC/C=C\CCC=O`
inactive

Query: recorded result category for `O=C(Nc1ccccc1)c1ccccc1O` in this test
inactive

Each molecule tested received a call. Report the one for `CCCCCCOc1cc(C)c(O)c(C)c1C` .
inactive

// param item: `CC(C)c1ccc(C=O)cc1` ; yields the recorded call
inactive

Outcome? OC1OCCOC1O (stereo not given)
inactive

Assay result, entry `CCCOC(=O)CCCCC(=O)OCCC` — outcome?
inactive

Which outcome was entered for the molecule `COC(=O)c1sccc1S(N)(=O)=O` in this test?
inactive

Lab log entry: `C=C[Si](OC(C)=O)(OC(C)=O)OC(C)=O` — outcome as called in the assay?
inactive

Recorded call for `CC(=O)[C@@]1(O)CC[C@H]2[C@@H]3C[C@H](C)C4=CC(=O)C=C[C@]4(C)[C@@]3(F)[C@@H](O)C[C@@]21C` ?
inactive

Outcome? `C=C1[C@H]2CC[C@@H]3[C@H]2C(C)(C)CCC[C@]13C`
inactive

Could you check what this test reported for `CC(=O)c1ccc[nH]1` ?
inactive

Would you mind telling me which call this test gave `O=C(O)c1cc(Cl)cc([N+](=O)[O-])c1Cl` ?
inactive

Hi team, can someone confirm the assay call for `CCCCCCCC(C)=O` ?
inactive

I'd appreciate the recorded outcome for `Cc1ccc(N)c([N+](=O)[O-])c1` from this test.
inactive

For `CCOC(=O)CC` , which call appears in the assay record?
inactive

Entry `CCCCCCCCCCc1ccccc1` : call = ?
inactive

Which outcome was entered for the molecule `ON(Cc1ccccc1)Cc1ccccc1` in this test?
inactive

Can you look up the reported call for `Cc1ccc2oc(=O)ccc2c1` for me?
inactive

Which result was noted for this molecule in the test: `CN(C)c1ccc(C(=N)c2ccc(N(C)C)cc2)cc1`
inactive

Identify the outcome logged in this assay for the molecule shown: `C=CCCCCCCCCC(=O)OCCCC`
inactive

Dear colleague, could you share the recorded outcome for `N=c1ccn2c(n1)O[C@H]1[C@H](O)[C@@H](CO)O[C@H]12` when you have a moment?
inactive

Field: outcome | Entry: `Nc1ccc(-c2ccc(F)cc2)cc1`
inactive

Fill in: this test's call for `O=Cc1ccc(CO)o1` is ___
inactive

Record request — test call for `OCCN(CCO)c1ccccc1`
inactive

Dear colleague, could you share the recorded outcome for `CCN(CCO)c1cccc(C)c1` when you have a moment?
inactive

What outcome does the record of this test show for `FC(F)=C(F)OC(F)(F)C(F)(F)C(F)(F)F` ?
inactive

Hi, do you know how `CN(C)c1ccc(N=Nc2ccccc2C(=O)O)cc1` came out in this test?
inactive

Hi, sorry to bother you, what did the test record for `CCN(CCC#N)c1ccc(N=Nc2c(Cl)cc([N+](=O)[O-])cc2Cl)cc1` ?
inactive

How was `O=C1c2cccc(O)c2C(=O)c2c(O)cc(CO)cc21` classified in this test?
inactive

Write down the call the test reported for this molecule. Item: `CCOC(=O)[C@H](C)O`
inactive

Field: outcome | Entry: `Cc1cc(C)c(C(=O)O)c(C)c1`
inactive

Just curious, what result did `C1=CCCC1` get here?
inactive

Hello, I am checking results. What call was entered for `CC(=O)Nc1ccc2c(c1)Cc1cc(NC(C)=O)ccc1-2` ?
inactive

Short answer needed: outcome of this test for `OC1CCCCCCCCCCC1` ?
inactive

Please indicate how the test categorized N[C@H]1C(O)O[C@H](CO)[C@H](O)[C@@H]1O (stereo not given in full) .
inactive

I'd appreciate the recorded outcome for `COC(=O)c1c(C)cc(O)c(C)c1O` from this test.
inactive

Would you mind telling me which call this test gave `Cc1ccc(C(C)c2ccc(C)c(C)c2)cc1C` ?
active

Which outcome was entered for the molecule CC1OC1C1CCC2(C)OC2C1 (stereo not given) in this test?
inactive

For this molecule, state the assay outcome: `CC1(C)O[C@@H]2C[C@H]3[C@@H]4C[C@H](F)C5=CC(=O)CC[C@]5(C)[C@H]4[C@@H](O)C[C@]3(C)[C@]2(C(=O)CO)O1`
inactive

Name the outcome recorded for `CCCCCCCC/C=C\CCCCCCCC(=O)OCCO` in the assay.
inactive

Tell me the recorded outcome of this test for CO[Si](CCC1CCC2OC2C1)(OC)OC (stereo not given) .
inactive
